Entry source: patent US6486149B2

- procedure.details: Solubility in acidic water (pH 1.2) at 37° C. (Test Example 1)
- Type: physicochemical
- experimental.conditions: acidic water (pH 1.2) containing HCl, simulated gastric fluid, thermodynamic from solid, acidic water (pH 1.2) containing about 1N HCl, stirred 2 hours, filtered through 1 μm membrane, read-out: solubility of Cefditoren pivoxil in acidic water
assay.metric: solubility at 2 h

Entry under test: CO/N=C(\C(=O)NC1C(=O)N2C(C(=O)OCOC(=O)C(C)(C)C)=C(/C=C\c3scnc3C)CS[C@H]12)c1csc(N)n1 (stereo partly shown) . Its solubility at 2 h was ~400 µg/mL
